# Test system: ACHN
# Assay details: NCI tumour cell line growth inhibition, 48 h
The source made the active and inactive calls. Rule as the data show it: active = GI50 up to about 1.1 µM and inactive = higher.
Value type: GI50

Solved cases (5 shown):
| Molecule | Value type | Reported result |
| --- | --- | --- |
| Cc1cn(C2OC(CO[Si](C)(C)C(C)(C)C)C(N(C)O[Si](C)(C)C(C)(C)C)C2[Se]c2ccccc2)c(=O)[nH]c1=O (stereo unspecified) | GI50 | 3.92 µM (inactive) |
| O=[N+]([O-])c1cc([N+](=O)[O-])c(C(Cl)C(Cl)c2ccccc2)cc1C(Cl)C(Cl)c1ccccc1 (stereo unspecified) | GI50 | 1.77 µM (inactive) |
| Cn1c(=O)c2nc(CCNC(=O)c3ccccc3)[nH]c2n(C)c1=O | GI50 | > 100 µM (inactive) |
| CS(=O)(=O)OCCN(CCOS(C)(=O)=O)c1ccc(/C=N/c2ccc(-c3csc(Cc4ccccc4)n3)cc2)c(Cl)c1 | GI50 | 30.7 µM (inactive) |
| CCCC(=O)n1[nH]c(=O)n(C(C)(C)C)c1=O | GI50 | > 100 µM (inactive) |

For the molecule NS(=O)(=O)c1cc(S(N)(=O)=O)c(NC(=O)Nc2ccc(Cl)c(Cl)c2)c(Cl)c1Cl , what GI50 is on record?
> 100 µM (inactive)

GI50 lookup needed for N/C(CSCCSC/C(N)=N/O)=N\O , thanks.
> 100 µM (inactive)

Which GI50 is reported for this molecule? CC12ON=C(c3ccccc3)N1C=CN1C(c3ccccc3)=NOC12 (stereo unspecified)
> 100 µM (inactive)

Please give the measured GI50 for this molecule: CC(=O)OC(C)(C)C1CCC(C)(C(O)COc2ccc(CCNC(=O)c3ccccc3)cc2)O1 (stereo unspecified)
54.1 µM (inactive)

What value of measured GI50 is listed for CCOC(=O)c1c(Sc2ccc([N+](=O)[O-])cc2[N+](=O)[O-])nc2c3ccccc3ccn12 ?
19.3 µM (inactive)

Which measured GI50 value corresponds to COC(=O)C1(Cc2cccc(Cl)c2)CCCCCCN1C(=O)c1ccccc1 (stereo unspecified) ?
9.46 µM (inactive)

###

# System: HCT-116
# Assay details: NCI tumour cell line growth inhibition, 48 h
Active and inactive are the calls of the source. No stated cut-off is given here; in the data, active = GI50 up to about 1.1 µM and inactive = higher.
Write down the outcome that applies. Available outcomes: active, inactive

| Compound | Group label |
| --- | --- |
| S=C1CNC(=S)CN1 | inactive |
| N#Cc1[nH]c(=S)[nH]c1N | inactive |
| Cc1cc2nnn(C3CCCCO3)c2cc1C (configuration not stated) | inactive |
| CN(C)/C=N\c1cc[nH]c(=O)n1 | inactive |
| Nc1nc(N)c2ncn(Cc3ccccc3CCl)c2n1 | inactive |
| O=C1C2ON3c4ccccc4C(=O)C3(c3ccccc3)C2C(=O)N1c1ccccc1 (configuration not stated) | inactive |
| CC(C)(C)[Si](OC1CCOC1=O)(c1ccccc1)c1ccccc1 (configuration not stated) | inactive |
| Cc1cc(Cc2cc(Cc3cc(C)cc(C(C)(C)C)c3O)c(C)cc2C)c(O)c(C(C)(C)C)c1 | inactive |
| CS(=O)(=O)c1ccc(-c2cc(-c3ccc(S(C)(=O)=O)cc3)[n+](-c3cc(-c4ccccc4)c([O-])c(-c4ccccc4)c3)c(-c3ccc(S(C)(=O)=O)cc3)c2)cc1 | inactive |
| COc1ccc(NC(=O)CC(=O)NNC(Sc2ccccc2)c2cc(/N=N/c3ccc(Br)cc3)ccc2O)cc1 (configuration not stated) | inactive |

Answer briefly: the call reported for O=NN(CCCl)C(=O)N[C@H]1CC[C@H](C(=O)O)CC1 in this assay.
inactive

Please let me know the test result on file for COC1CC(C)([N+](=O)[O-])C(O)C(C)O1 (configuration not stated) .
inactive

What call does the record list for CN(C)CN1C(=O)S/C(=C2\C(=O)N(CN(C)C)c3ccccc32)C1=O ?
inactive

Query: recorded result category for O=C(Cn1c2ccc(Br)cc2c2nc3ccccc3nc21)Nc1ccccc1 in this test
inactive

Recorded call for Cn1c(=O)c2nc(CCNC(=O)c3ccccc3)[nH]c2n(C)c1=O ?
inactive

Outcome? O=C1NC(=S)NC(=O)C1=C/C=C/c1ccc([N+](=O)[O-])cc1
inactive

What classification did CN(C)CCNC(=O)c1ccc(NCCCN(C)CCCNc2ccc(C(=O)NCCN(C)C)c3nc4ccccc4c(O)c23)c2c(O)c3ccccc3nc12 end up with in this test?
active
